Experiment: AP1 Signaling Pathway (AID 357);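 note: ME-180 reporter cells stimulated with EGF at its EC50 level; % is set by controls: 0 for no effect and ±100 for the full control effect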
Conditions: ME-180 (cervical carcinoma) AP-1-bla reporter, EGF-induced, beta-lactamase ratio, 5 h; at 7.69 µM (top of the series) unless noted
Method: NCGC Assay Overview: Activator protein-1 (AP-1), a transcription factor, plays an important role in tumor genesis by regulating genes involved in cell proliferation, differentiation, apoptosis, and angiogenesis. AP-1 activity is induced by a complex network of signaling pathways that involves extracellular signals, such as growth factors. […] Library compounds were measured for their ability to modulate positively or negatively the action of EC50 EGF on reporter gene activity. […]
Results filed as inconclusive are left out.
Collected activity change, negative = inhibition values appear next to each entry.
Quick reminder: number only, in %, skip the unit.

Study these solved cases before continuing.
{"columns": ["structure.notation", "test.result"],
 "data": [
  ["O=C1c2cccc(O)c2C(=O)c2c(O[C@@H]3O[C@H](CO)[C@@H](O)[C@H](O)[C@@H]3O)cccc21", 29.9],
  ["O=C(CON1C(=O)c2ccccc2C1=O)c1ccccc1", -3.99],
  ["CC[C@@H]1CC(=O)N(SC[C@H](N)C(=O)O)C1=O", 1.56]
]}

Prompt line: Fill in the blank: the reported activity change, negative = inhibition of [Cu].[O-]/N=C1/C(=[OH+])Nc2ccccc21.[O-]Nc1c(O)[nH]c2ccccc12 is ____.
Response line: 3.32

Prompt line: Fill in the blank: the reported activity change, negative = inhibition of O=C(O)c1nc2nc(Cl)c(Cl)nc2[nH]1 is ____.
Response line: 0.697

Prompt line: Fill in the blank: the reported activity change, negative = inhibition of O=C(CN1C(=O)c2ccccc2C1=O)[C@@H](O)CN1C(=O)c2ccccc2C1=O is ____.
Response line: -10.3

Prompt line: Fill in the blank: the reported activity change, negative = inhibition of COc1ccc2c(c1)CCc1c(-c3noc4c3CCc3cc(OC)ccc3-4)noc1-2 is ____.
Response line: -10.7

Prompt line: Fill in the blank: the reported activity change, negative = inhibition of NS(=O)(=O)c1ccc(N=Nc2nc3[nH]c(=O)[nH]c(=O)c3[nH]2)cc1 is ____.
Response line: -5.25

Prompt line: Fill in the blank: the reported activity change, negative = inhibition of CSc1cccc(NC(=O)OC2CCCCCCCCCCC2)c1 is ____.
Response line: 8.21

Prompt line: Fill in the blank: the reported activity change, negative = inhibition of O=C(N/N=C\c1ccc2c(c1)CCC2)c1ccccc1O is ____.
Response line: -5.97
